Where these numbers come from: the supplement of paper PMC10065799

Tested on: AncSZ;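 also: 11-residue human phosphosite peptides and single-mutation variants displayed on the E. coli surface, counted by deep sequencing, each peptide's frequency after selection divided by its frequency in the unselected input library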;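 also: frequency after pTyr selection over input frequency; kinase dosed for 20-30% of maximal phosphorylation in three min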
Experimental Details: phosphorylation enrichment, bacterial display (enrichment ratio); higher = better substrate or ligand; peptides without Tyr show the background
Output: class label from phosphorylation enrichment. Mapping: low (below 0.8), intermediate (0.8 to below 1), high (1 or more)

For orientation, consider the following solved cases.
{"Sequence String": "RALCHYYKLNI [ETV6_Y401_R399C]", "Label Class": "high"}
{"Sequence String": "VCHELYNAIRD [PBRM1_Y54_T56A]", "Label Class": "intermediate"}
{"Sequence String": "VHNLDYYKMTT [FGFR3_Y647_K650M]", "Label Class": "high"}
{"Sequence String": "SVTCTHSPALN [TP53_Y126_Y126H]", "Label Class": "intermediate"}
{"Sequence String": "KASIMYPSNNC [CXCL11_Y52]", "Label Class": "low"}

Which phosphorylation enrichment category applies to MKALGYFAVVT [OPA1_Y498] here? high

Category of KLPFLYDDPFS [GPX2_Y127_P126L_YF] : high
